# target.of.assay: Aedes aegypti neuropeptide Y-like receptor 7 (NPYLR7)
# measurement.notes: agonists of mosquito NPYLR7 receptor, confirmation, cell-based, Aedes aegypti, hit validation, mosquito biting behavior (AID 1259427);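 also: potency of agonists that activate the receptor and raise the calcium signal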
# measurement.parameters: HEK293T NPYLR7/Galpha15/GCaMP6s, calcium fluorescence
Active and inactive are the calls of the source.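 The calls were made as follows: active = EC50 at or below a set limit, with no effect in the paired counter-screen assay; inactive = the rest.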
Result category, one only: true (active), false (inactive)

>>> class_label("Cc1csc(-c2cc3ccc(O)c(CN4CCN(CCO)CC4)c3oc2=O)n1")
"false"
>>> class_label("COc1ccc(C(=O)N(Cc2ccccc2)C2CCC(NC(=O)C3CCN(C(=O)c4ccccc4Cl)CC3)CC2)cc1 (configuration not stated)")
"true"
>>> class_label("CCCc1ccccc1N1C(=O)CSC1c1ccc(NC(=O)CCl)cc1 (configuration not stated)")
"false"

Outcome logged for CCC(C)n1cc(/C=C2/C(=O)NC(=O)N(c3ccc4c(c3)OCO4)C2=O)c2ccccc21 (configuration not stated) in this assay:
false

Outcome logged for Cc1cccc(Oc2nc3ccccn3c(=O)c2/C=C(\C#N)c2nc3ccccc3s2)c1 in this assay:
false

Outcome logged for CCOc1cc(/C=C2\C(=N)N3N=CSC3=NC2=O)cc(Br)c1OC(=O)c1ccccc1 in this assay:
false

Outcome logged for Cc1nn(C)c(Cl)c1/C=C1/CCCc2c1nc1ccccc1c2C(=O)O in this assay:
true

Outcome logged for Cn1c(C(C#N)=Cc2c(F)c(F)c(F)c(F)c2F)nc2ccccc21 in this assay:
false

Outcome logged for C=CCN1C(=O)/C(=C\c2ccc(O)cc2)SC1=S in this assay:
false

Outcome logged for OCCN(CCO)c1nc(N2CCCCC2)c2nc(N(CCO)CCO)nc(N3CCCCC3)c2n1 in this assay:
false

Outcome logged for COc1cc(C=C(C#N)S(=O)(=O)c2cc(Br)ccc2Br)ccc1O in this assay:
false

Outcome logged for Nc1c2c(nc3sc4c(c13)CCCC4)CCCCC2 in this assay:
false

Outcome logged for COCCn1c(C)cn2c3c(=O)n(Cc4ccc(Cl)cc4)c(=O)n(C)c3nc12 in this assay:
false

Outcome logged for O=C1C(=Cc2ccccc2O)NC(=S)N1Cc1ccco1 in this assay:
false

Outcome logged for N#CC(=Cc1c(F)c(F)c(F)c(F)c1F)c1ccccn1 in this assay:
false

Outcome logged for C#CCN1C(=O)SC(=Cc2ccc(N3CCCCC3)o2)C1=O in this assay:
false

Outcome logged for COCCCNCc1c(-c2ccc(F)cc2)noc1N1CCOCC1 in this assay:
false

Outcome logged for Cc1ccc(Cl)c(Oc2cc(N3CCN(C(=O)c4ccc(Cl)c(Cl)c4)CC3)ncn2)c1 in this assay:
false

Outcome logged for COc1ccccc1OCCCOc1ccc(Br)cc1Cl in this assay:
false

Outcome logged for O=C1c2cccc3c(NCC(O)CCl)ccc(c23)C(=O)N1c1ccccc1 (configuration not stated) in this assay:
false

Outcome logged for CC1(C)OC2OC(C(O)c3cc(O)c4c(c3O)C(=O)c3ccccc3C4=O)C(C)(O)C2O1 (configuration not stated) in this assay:
false

Outcome logged for COc1cc(C=C2N=C(c3ccc4c(c3)OCO4)OC2=O)cc2c1OCCO2 in this assay:
false

Outcome logged for CC(=NNc1ncnc2sc(C)c(C)c12)c1ccccn1 in this assay:
false

Outcome logged for CCc1nn(C(C)C(=O)NC(C)CCc2ccco2)c(=O)c2cc3occc3n12 (configuration not stated) in this assay:
false

Outcome logged for O=C1CSC(=S)N1N=Cc1cc(Br)c(O)c(Br)c1 in this assay:
false

Outcome logged for CN1CCc2c(sc(NC(=O)Cc3ccccc3)c2-c2nc3ccccc3s2)C1 in this assay:
false

Outcome logged for O=[N+]([O-])c1cc(S(=O)(=O)Nc2cc(Cl)ccc2F)ccc1F in this assay:
false

---

# target.of.assay: Aedes aegypti neuropeptide Y-like receptor 7 (NPYLR7)
# measurement.notes: agonists of mosquito NPYLR7 receptor, confirmation, cell-based, Aedes aegypti, hit validation, mosquito biting behavior (AID 1259427);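 also: potency of agonists that activate the receptor and raise the calcium signal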
# measurement.parameters: HEK293T NPYLR7/Galpha15/GCaMP6s, calcium fluorescence
The source made the active and inactive calls.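 The calls were made as follows: active = EC50 at or below a set limit, with no effect in the paired counter-screen assay; inactive = the rest.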
parameter: EC50

Example entries and their recorded answers appear below.
>>> measured_value("CSc1ccc(C2CC(c3cccs3)=Nc3ncnn32)cc1 (centres undefined)")
"inactive"
>>> measured_value("CCNC(=O)[C@H]1O[C@@H](n2cnc3c(N)ncnc32)C(O)[C@H]1O (some centres undefined)")
"inactive"
>>> measured_value("CCOC(=O)C1CCCN(c2nc3nonc3nc2N2CCSCC2)C1 (centres undefined)")
"> 20 µM (inactive)"
>>> measured_value("COc1ccc(OC)c(CCNc2nc3cnc(-c4cc(OC)c(OC)c(OC)c4)cc3n2C)c1")
"12.7 µM"
>>> measured_value("C(=Cc1ccccc1)C=NNc1ncnc2ccccc12")
"> 20 µM (inactive)"
>>> measured_value("N#Cc1cccc(C(=O)N2CCN(C(c3ccccc3)c3ccc(Br)cc3)CC2)c1 (centres undefined)")
"> 20 µM (inactive)"

Sample Cc1cccc(N2C(=O)NC(=O)/C(=C/c3cn(C)c4ccccc34)C2=O)c1 — what was its EC50?
> 20 µM (inactive)

Sample CCOC(=O)c1c(-c2ccccc2)csc1N=Cc1nc(-c2ccccc2)oc1O — what was its EC50?
> 20 µM (inactive)

Sample CN=c1nc(-c2ccccc2)n(-c2ccccc2)s1 — what was its EC50?
19.9 µM

Sample COc1cc(OC)cc(C(=O)N2CCN(C(C(=O)Nc3ccc(NC(C)=O)cc3)C3CCCC3)CC2)c1 (centres undefined) — what was its EC50?
> 20 µM (inactive)

Sample CC(C)(C)NCC(O)c1ccc(O)c(CO)c1 (centres undefined) — what was its EC50?
> 20 µM (inactive)

Sample CNC[C@H](O)c1ccc(O)c(O)c1 — what was its EC50?
inactive

Sample C=CCN1C=CC(=CC=C(C#N)C#N)C=C1 — what was its EC50?
inactive

Sample COc1ccc(C(=O)C=Cc2cc(OC)c(O)c(OC)c2)cc1F — what was its EC50?
> 20 µM (inactive)

Sample N#CC(C#N)=C1C=C2C=C(N3CCN(Cc4ccccc4)CC3)CCC2CC1 (centres undefined) — what was its EC50?
> 20 µM (inactive)

Sample CCCC[n+]1c(C)cc(C=C2Sc3ccccc3N2C)cc1C — what was its EC50?
> 20 µM (inactive)

Sample CC(C(=O)O)N1C(=O)/C(=C\c2ccc(O)cc2)SC1=S (centres undefined) — what was its EC50?
> 20 µM (inactive)

---

# target.of.assay: Aedes aegypti neuropeptide Y-like receptor 7 (NPYLR7)
# measurement.notes: agonists of mosquito NPYLR7 receptor, confirmation, cell-based, Aedes aegypti, hit validation, mosquito biting behavior (AID 1259427);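 also: potency of agonists that activate the receptor and raise the calcium signal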
# measurement.parameters: HEK293T NPYLR7/Galpha15/GCaMP6s, calcium fluorescence
The source made the active and inactive calls.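 How the source made its calls: active means EC50 at or below a set limit, with no effect in the paired counter-screen assay; inactive means the rest.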
parameter: EC50

>>> measured_value("CCOc1cc(C=O)c(O)c(C=O)c1")
"inactive"
>>> measured_value("O=c1cc(C(F)(F)F)c2ccc(O)cc2o1")
"inactive"
>>> measured_value("O=C(O)CSc1ccc2c3c(cccc13)C(=O)c1ccccc1-2")
"inactive"

---

# target.of.assay: Aedes aegypti neuropeptide Y-like receptor 7 (NPYLR7)
# measurement.notes: agonists of mosquito NPYLR7 receptor, confirmation, cell-based, Aedes aegypti, hit validation, mosquito biting behavior (AID 1259427);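 also: potency of agonists that activate the receptor and raise the calcium signal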
# measurement.parameters: HEK293T NPYLR7/Galpha15/GCaMP6s, calcium fluorescence
Active and inactive are the calls of the source.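 How the source made its calls: active means EC50 at or below a set limit, with no effect in the paired counter-screen assay; inactive means the rest.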
Result category, one only: label 1 for active, label 0 for inactive

Outcome logged for COC(=O)c1cc(N)c(/C=C/c2cccs2)s1 in this assay:
label 0

Outcome logged for CNC(=O)c1cnc(/C=C/c2csc(-c3ccsc3)n2)[nH]c1=O in this assay:
label 0

Outcome logged for Cc1cc2nc3c(=O)[nH]c(=O)nc-3n(CC(O)C(O)C(O)CO)c2cc1C (stereo not given) in this assay:
label 0

Outcome logged for O=C(CC(c1cccc([N+](=O)[O-])c1)c1c[nH]c2ccccc12)NC1CC1 (stereo not given) in this assay:
label 0

Outcome logged for CC1C(=O)c2cccc3c(=O)n(-c4ccccc4)c(O)c(c23)C1=O (stereo not given) in this assay:
label 1

Outcome logged for O=C1/C(=C/c2cccc(F)c2)Oc2c1ccc(O)c2CN1CCN(CCO)CC1 in this assay:
label 0

Outcome logged for CCOC(=O)c1cc(O)c(C(=O)OCC)s1 in this assay:
label 0

Outcome logged for COc1ccc(/C=C2\Oc3c(ccc4c3CN(Cc3ccncc3)CO4)C2=O)cc1 in this assay:
label 0

Outcome logged for O=C1Nc2ccccc2C1C=NN1CCOCC1 (stereo not given) in this assay:
label 0

Outcome logged for N#Cc1c(N)nc2c(c1N)C(Sc1ccccc1)c1ccc(O)cc1O2 (stereo not given) in this assay:
label 0

---

# target.of.assay: Aedes aegypti neuropeptide Y-like receptor 7 (NPYLR7)
# measurement.notes: agonists of mosquito NPYLR7 receptor, confirmation, cell-based, Aedes aegypti, hit validation, mosquito biting behavior (AID 1259427);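 also: potency of agonists that activate the receptor and raise the calcium signal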
# measurement.parameters: HEK293T NPYLR7/Galpha15/GCaMP6s, calcium fluorescence
Calls of active or inactive are those of the source.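 The calls were made as follows: active = EC50 at or below a set limit, with no effect in the paired counter-screen assay; inactive = the rest.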
parameter: EC50

Example entries and their recorded answers appear below.
>>> measured_value("CC(C)CN1C(=O)C(=Cc2c(N3CCN(CCO)CC3)nc3ccccn3c2=O)SC1=S")
"> 20 µM (inactive)"
>>> measured_value("CCOC(=O)c1ccccc1-c1c2ccc(=N)cc-2oc2cc(N)ccc12")
"< 0.039 µM (inactive)"
>>> measured_value("O=C1OC(c2ccc(Cl)c([N+](=O)[O-])c2)=N/C1=C\\c1cc2cc3c4c(c2oc1=O)CCCN4CCC3")
"< 0.039 µM (inactive)"
>>> measured_value("CC(C)OC(=O)C(C(=O)C(F)(F)F)c1cc(NS(=O)(=O)c2ccc(Cl)cc2)ccc1O (configuration not stated)")
"> 20 µM (inactive)"
>>> measured_value("NC(=O)CN1c2cccc3cccc(c23)S1(=O)=O")
"> 20 µM (inactive)"

Attention now shifts to the item below.
Sample CCN1C(=Cc2cc(C)[n+](C3CCCCC3)c(C)c2)Sc2ccccc21 — what was its EC50?
> 20 µM (inactive)
